biological target: CD28 (Homo sapiens, UniProt P10747); experiment: Flow binding to Jurkat/IL2 reporter cells (CD28); parameters: host or cells: Jurkat cells expressing an IL-2-luciferase reporter; conditions: Table E11; 33.3 nM; listed as WT CD80 ECD-Fc = 1.0
QUANTITY NAME: CD28 Fold change to WT CD80
Give the value as a plain number.

- MOLECULE: "E35D/M47L/Y53F/V68M/A71G/K93R/E95V (protein, UniProt P33681 35-288, looked up, variant E35D M47L Y53F V68M A71G K93R E95V) T-lymphocyte activation …: VIHVTKEVKEVATLSCGHNVSVEELAQTRIYWQKDKKMVLTMMSGDLNIWPEFKNRTIFDITNNLSIMILGLRPSDEGTYECVVLKYEKDAFRRVHLAEVTLSVKADFPTPSISDFEIPTSNIRRIICSTSGGFPEPHLSWLENGEELNAINTTVSQDPETELYAVSSKLDFNMTTNHSFMCLIKYGHLRVNQTFNWNTTKQEHFPDNLLPSWAITLISVNGIFVICCLTYCFAPRCRERRRNERLRRESVRPV"
  CD28 Fold change to WT CD80: 12.2

Asked: Read the entry T13R/Q33R/E35D/M38I/M47L/V68M (protein, UniProt P33681 35-288, looked up, variant T13R Q33R E35D M38I M47L V68M) T-lymphocyte activation …: VIHVTKEVKEVARLSCGHNVSVEELAQTRIYWRKDKKIVLTMMSGDLNIWPEYKNRTIFDITNNLSIMILALRPSDEGTYECVVLKYEKDAFKREHLAEVTLSVKADFPTPSISDFEIPTSNIRRIICSTSGGFPEPHLSWLENGEELNAINTTVSQDPETELYAVSSKLDFNMTTNHSFMCLIKYGHLRVNQTFNWNTTKQEHFPDNLLPSWAITLISVNGIFVICCLTYCFAPRCRERRRNERLRRESVRPV and write its reported CD28 Fold change to WT CD80.
Given back: 0.4
